FYI, the data here is from patent EP0347843A1.

# Test description: physchem
# Assay context: 20 mm bile acid solution
Observable: solubility (µg/mL)
One number for each entry, in µg/mL.

Form field solubility, entry Cc1c(C)c2c(c(C)c1O)CC[C@@](C)(CCC[C@H](C)CCC[C@H](C)CCCC(C)C)O2 [d-alpha-tocopherol] : 2000
